# target.desc: T1, recombinant canine OX40L ECD-TNCc-HIS protein (canine)
# T1 construct: also called Trimeric OX40L probe (HIS tag); trimeric canine OX40L
# T1 chain: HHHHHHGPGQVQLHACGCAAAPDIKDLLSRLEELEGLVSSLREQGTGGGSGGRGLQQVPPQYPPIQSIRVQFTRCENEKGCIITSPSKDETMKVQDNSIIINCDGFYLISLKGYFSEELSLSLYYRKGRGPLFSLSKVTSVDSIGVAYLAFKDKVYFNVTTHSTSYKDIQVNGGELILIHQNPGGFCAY
# protocol: SPR Koff (kd2)
Readings of koff for the listed binders

binder: PMX040 (antibody, V domains shown, also called PMX40) VH: EVQLVESGGDLVKPGGSLRLSCVASGFTFSNFEMYWVRQAPGKGLEWVARIYESGTTTYHAEGVKGRFTISKDNVKNMAYLQMNSLRAEDTAVYYCTSASSSSWRFDYWGQGTLVTVSS VL: SYVLTQLPSVSVTLRQTARITCGGDSIGRKNVCWFQQKLGQAPILIIYDDSSRPSGIPERFSGANSGNTATLTISGALAEDEADYYCQVWDSSTGIFGGGTHLTVL
unit.info: s⁻¹
koff: 0.436
//
binder: PMX054 (antibody, V domains shown, also called PMX54) VH: EVHLVESGGDLVKPEGSLRLSCVVSGFTFSSYDMSWVRQAPGKGLQWVAYISSDGRSTGYTDAVKGRFTISRDNAKKTLYLQMNSLRSEDTAVYYCAKETPRWGFDYWGQGTLVTVSS VL: SYVLTQLPSVSVTLRQTARITCGGASIGSKNVYWHQQKLGQAPLLIIYDDSSRPSGIPERFSGANSGNTATLTISGALAEDEADYYCQVWDSSTSVFGGGTHLTVL
unit.info: s⁻¹
koff: 0.0848
